tested on: OVCAR3 (ovarian adenocarcinoma cell line); assay: Cytotoxicity assay (CellTiter-Glo), OVCAR-3; format: cell-based; details: Table VA, 72 hours or 6 days
Where a SMILES comes first, the peptide text is derived from it. [ ]: non-standard residue; d: D form. The star is where a group is joined. Dolaproine = CO[C@@H]([C@@H]1CCCN1)[C@@H](C)C(=O)O; Dil = CC[C@H](C)[C@H](NC)[C@@H](CC(=O)O)OC; NMe2Val = CC(C)[C@@H](C(=O)*)N(C)C; NH(3-hydroxypropyl) = OCCCN*
MEASURED ATTRIBUTE: pIC50
The scale used: pIC50 is minus the common logarithm of the concentration in molar units.

Problem: Please give the measured pIC50 for this compound: CC[C@H](C)[C@@H]([C@@H](CC(=O)N1CCC[C@H]1[C@H](OC)[C@@H](C)C(=O)N[C@@H](Cc1ccccc1)C(=O)NCCCO)OC)N(C)C(=O)[C@@H](NC(=O)[C@H](C(C)C)N(C)C)C(C)C [AF-HPA, Auristatin F-hydroxypropylamide] (NMe2Val-V[Dil][Dolaproine]F-{NH(3-hydroxypropyl)})
Solution: 8.38

* * *

tested on: HCC-4006 (human lung carcinoma cell line); test: Cytotoxicity assay (CellTiter-Glo), HCC-4006; assay type: cell-based; settings: Table VB, 72 hours or 6 days
Where a SMILES comes first, the peptide text is derived from it. [ ]: non-standard residue; d: D form. The star is where a group is joined. Dolaproine = CO[C@@H]([C@@H]1CCCN1)[C@@H](C)C(=O)O; Dil = CC[C@H](C)[C@H](NC)[C@@H](CC(=O)O)OC; NMe2Val = CC(C)[C@@H](C(=O)*)N(C)C; NH(3-hydroxypropyl) = OCCCN*
MEASURED ATTRIBUTE: IC50
Returns: string containing the numeric result and its unit.

Problem: Notebook: pull reported IC50 for HCC-4006 (human lung carcinoma cell line), entry CC[C@H](C)[C@@H]([C@@H](CC(=O)N1CCC[C@H]1[C@H](OC)[C@@H](C)C(=O)N[C@@H](Cc1ccccc1)C(=O)NCCCO)OC)N(C)C(=O)[C@@H](NC(=O)[C@H](C(C)C)N(C)C)C(C)C [AF-HPA, Auristatin F-hydroxypropylamide] (NMe2Val-V[Dil][Dolaproine]F-{NH(3-hydroxypropyl)})
Solution: 7.83 nM

* * *

tested on: TOV-21G (human ovarian adenocarcinoma cell line); test: Cytotoxicity assay (CellTiter-Glo), TOV-21G; format: cell-based; details: Table VB, 72 hours or 6 days
Where a SMILES comes first, the peptide text is derived from it. [ ]: non-standard residue; d: D form. The star is where a group is joined. Dolaproine = CO[C@@H]([C@@H]1CCCN1)[C@@H](C)C(=O)O; Dil = CC[C@H](C)[C@H](NC)[C@@H](CC(=O)O)OC; NMe2Val = CC(C)[C@@H](C(=O)*)N(C)C; NH(3-hydroxypropyl) = OCCCN*
MEASURED ATTRIBUTE: pIC50
In simple prose, pIC50 is minus the logarithm base ten of a concentration in moles per litre.

Problem: Param item = CC[C@H](C)[C@@H]([C@@H](CC(=O)N1CCC[C@H]1[C@H](OC)[C@@H](C)C(=O)N[C@@H](Cc1ccccc1)C(=O)NCCCO)OC)N(C)C(=O)[C@@H](NC(=O)[C@H](C(C)C)N(C)C)C(C)C [AF-HPA, Auristatin F-hydroxypropylamide] (NMe2Val-V[Dil][Dolaproine]F-{NH(3-hydroxypropyl)}) ; retrieve measured pIC50.
Solution: 7.90
